// values below are reported selectivity ratio
test: in vivo; details: mouse, ip
Could you keep your reply to the number by itself?

Solved entries (count: 3):
CO[C@@]12[C@H](COC(N)=O)C3=C(C(=O)C(C)C(=NOCC(C)C)C3=O)N1C[C@@H]1N[C@@H]12 (some centres unmarked) :: 1.9
CCC(C)ON=C1C(=O)C2=C(C(=O)C1C)N1C[C@@H]3N[C@@H]3[C@]1(OC)[C@@H]2COC(N)=O (some centres unmarked) :: 2.4
CON=C1C(=O)C2=C(C(=O)C1C)N1C[C@@H]3N[C@@H]3[C@]1(OC)[C@@H]2COC(N)=O (some centres unmarked) :: 0.5

selectivity ratio reported for this molecule CCCCON=C1C(=O)C2=C(C(=O)C1C)N1C[C@@H]3N[C@@H]3[C@]1(OC)[C@@H]2COC(N)=O (some centres unmarked) : 0.9

selectivity ratio reported for this molecule CO[C@@]12[C@H](COC(N)=O)C3=C(C(=O)C(C)C(=NOCC(C)C)C3=O)N1C[C@H]1[C@@H]2N1C (some centres unmarked) : 1.4

Source of measurements: patent US4791130A
